Collected r2 (Holo) values appear next to each entry.
test: T1 and T2 relaxivity measurements at 9.4 T (400 MHz NMR); format: physicochemical; details: PBS buffer pH 7.4, 37 °C, with Gln
Provide only the numeric value, understood in mM⁻¹ s⁻¹.

{"columns": ["molecule", "r2 (Holo) [mM⁻¹ s⁻¹]"],
 "data": [
  ["[Dy(DOTA-malN)]72-Q183Y: swArM: Dy(DOTA-mal^N) on T72C/Q183Y double variant of GlnBP (conjugate, UniProt P0AEQ3 23-248, looked up, variant T72C Q183Y, Dy(DOTA-malN) at Cys72, swArM: Dy(DOTA-mal^N) on T72C/Q183Y double variant of GlnBP) Glutamine-binding periplasmic …: ADKKLVVATDTAFVPFEFKQGDKYVGFDVDLWAAIAKELKLDYELKPMDFSGIIPALQTKNVDLALAGITICDERKKAIDFSDGYYKSGLLVMVKANNNDVKSVKDLDGKVVAVKSGTGSVDYAKANIKTKDLRQFPNIDNAYMELGTNRADAVLHDTPNILYFIKTAGNGQFKAVGDSLEAYQYGIAFPKGSDELRDKVNGALKTLRENGTYNEIYKKWFGTEPK", 18.0],
  ["[Gd(DOTA-mal^N)]72: swArM: Gd(DOTA-mal^N) metallocofactor covalently attached at Cys72 of T72C E. coli glutamine-binding protein (GlnBP) (conjugate, UniProt P0AEQ3 23-248, looked up, variant T72C, Gd(DOTA-malN) at Cys72) Glutamine-binding periplasmic …: ADKKLVVATDTAFVPFEFKQGDKYVGFDVDLWAAIAKELKLDYELKPMDFSGIIPALQTKNVDLALAGITICDERKKAIDFSDGYYKSGLLVMVKANNNDVKSVKDLDGKVVAVKSGTGSVDYAKANIKTKDLRQFPNIDNAYMELGTNRADAVLHDTPNILYFIKTAGNGQFKAVGDSLEAQQYGIAFPKGSDELRDKVNGALKTLRENGTYNEIYKKWFGTEPK", 43.2],
  ["[Gd(DTPA-malN)]72: swArM: Gd complex of maleimide-functionalized DTPA attached at Cys72 of T72C-GlnBP (conjugate, UniProt P0AEQ3 23-248, looked up, variant T72C, Gd(DTPA-mal) at Cys72, swArM: Gd complex of maleimide-functionalized DTPA attached at Cys72 of T72C-GlnBP) Glutamine-binding periplasmic …: ADKKLVVATDTAFVPFEFKQGDKYVGFDVDLWAAIAKELKLDYELKPMDFSGIIPALQTKNVDLALAGITICDERKKAIDFSDGYYKSGLLVMVKANNNDVKSVKDLDGKVVAVKSGTGSVDYAKANIKTKDLRQFPNIDNAYMELGTNRADAVLHDTPNILYFIKTAGNGQFKAVGDSLEAQQYGIAFPKGSDELRDKVNGALKTLRENGTYNEIYKKWFGTEPK", 72]
]}

Consider the record given below.
Measured r2 (Holo) of [Dy(DOTA-malN)]72-G119K: swArM: Dy(DOTA-mal^N) on T72C/G119K double variant of GlnBP (conjugate, UniProt P0AEQ3 23-248, looked up, variant T72C G119K, Dy(DOTA-malN) at Cys72, swArM: Dy(DOTA-mal^N) on T72C/G119K double variant of GlnBP) Glutamine-binding periplasmic …: ADKKLVVATDTAFVPFEFKQGDKYVGFDVDLWAAIAKELKLDYELKPMDFSGIIPALQTKNVDLALAGITICDERKKAIDFSDGYYKSGLLVMVKANNNDVKSVKDLDGKVVAVKSGTKSVDYAKANIKTKDLRQFPNIDNAYMELGTNRADAVLHDTPNILYFIKTAGNGQFKAVGDSLEAQQYGIAFPKGSDELRDKVNGALKTLRENGTYNEIYKKWFGTEPK : 8.5
